Test: MTT cytotoxicity assay
Format: cell-based, human
Conditions: human, HepG2 cells, HepG2, 200 μg/mL, read-out: cell viability (survival rate)
Measure name: viability at 24 h, 200 µg/mL (%)

1. O=C(O)c1ccc(-c2c3nc(c(-c4ccc(C(=O)O)cc4)c4ccc([nH]4)c(-c4ccc(C(=O)O)cc4)c4nc(c(-c5ccc(C(=O)O)cc5)c5ccc2[nH]5)C=C4)C=C3)cc1; 30.3

###

Target: α-amylase (Sus scrofa)
Sequence (P00690 16-511): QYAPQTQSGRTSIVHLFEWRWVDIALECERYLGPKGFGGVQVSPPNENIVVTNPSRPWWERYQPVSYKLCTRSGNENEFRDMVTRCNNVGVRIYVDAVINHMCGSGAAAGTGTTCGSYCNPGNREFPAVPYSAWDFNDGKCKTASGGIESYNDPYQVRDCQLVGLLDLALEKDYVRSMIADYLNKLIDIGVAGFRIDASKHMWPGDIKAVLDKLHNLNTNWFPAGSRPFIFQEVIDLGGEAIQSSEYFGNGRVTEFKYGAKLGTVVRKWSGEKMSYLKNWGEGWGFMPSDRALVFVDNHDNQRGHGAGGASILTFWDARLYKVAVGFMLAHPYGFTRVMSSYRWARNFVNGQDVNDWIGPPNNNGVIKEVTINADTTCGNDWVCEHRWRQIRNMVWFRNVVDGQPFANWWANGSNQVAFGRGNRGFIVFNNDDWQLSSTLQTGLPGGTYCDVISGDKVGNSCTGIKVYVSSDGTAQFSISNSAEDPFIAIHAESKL
Assay: Mode of α-AMY inhibition (reversibility, Lineweaver–Burk kinetics)
Type: biochemical
Details: enzyme–substrate complex inhibition constant
Collected Kis values appear next to each entry.
Measure name: Kis

1) Oc1ccc(-c2c3nc(c(-c4ccc(O)cc4)c4ccc([nH]4)c(-c4ccc(O)cc4)c4nc(c(-c5ccc(O)cc5)c5ccc2[nH]5)C=C4)C=C3)cc1 [THPP]; 23.1012 ± 0.1027 µg/mL
2) O=C(O)c1ccc(-c2c3nc(c(-c4ccc(C(=O)O)cc4)c4ccc([nH]4)c(-c4ccc(C(=O)O)cc4)c4nc(c(-c5ccc(C(=O)O)cc5)c5ccc2[nH]5)C=C4)C=C3)cc1.[Cu+2] [Cu–TCPP]; 420.9420 ± 0.2189 µg/mL
3) O=C(O)c1ccc(-c2c3nc(c(-c4ccc(C(=O)O)cc4)c4ccc([nH]4)c(-c4ccc(C(=O)O)cc4)c4nc(c(-c5ccc(C(=O)O)cc5)c5ccc2[nH]5)C=C4)C=C3)cc1 [TCPP]; 132.4382 ± 0.1403 µg/mL
4) Nc1ccc(-c2c3nc(c(-c4ccc(N)cc4)c4ccc([nH]4)c(-c4ccc(N)cc4)c4nc(c(-c5ccc(N)cc5)c5ccc2[nH]5)C=C4)C=C3)cc1 [TAPP]; 21.2847 ± 0.0677 µg/mL

###

Target: α-amylase (Sus scrofa)
Assay: Fluorescence quenching, binding and thermodynamics with α-amylase
Settings: Van’t Hoff, 298–310 K
Sorting guide: entries reporting ΔS^0 beneath -300 J/mol/k go in the rule met pile, the rest go in the rule not met pile.

1. O=C(O)c1ccc(-c2c3nc(c(-c4ccc(C(=O)O)cc4)c4ccc([nH]4)c(-c4ccc(C(=O)O)cc4)c4nc(c(-c5ccc(C(=O)O)cc5)c5ccc2[nH]5)C=C4)C=C3)cc1.[Ni+2] [Ni–TCPP]; rule met
2. Oc1ccc(-c2c3nc(c(-c4ccc(O)cc4)c4ccc([nH]4)c(-c4ccc(O)cc4)c4nc(c(-c5ccc(O)cc5)c5ccc2[nH]5)C=C4)C=C3)cc1 [THPP]; rule not met
3. O=C(O)c1ccc(-c2c3nc(c(-c4ccc(C(=O)O)cc4)c4ccc([nH]4)c(-c4ccc(C(=O)O)cc4)c4nc(c(-c5ccc(C(=O)O)cc5)c5ccc2[nH]5)C=C4)C=C3)cc1.[Cu+2] [Cu–TCPP]; rule not met
4. O=C(O)c1ccc(-c2c3nc(c(-c4ccc(C(=O)O)cc4)c4ccc([nH]4)c(-c4ccc(C(=O)O)cc4)c4nc(c(-c5ccc(C(=O)O)cc5)c5ccc2[nH]5)C=C4)C=C3)cc1 [TCPP]; rule not met

###

Collected n (number of binding sites) values appear next to each entry.
Target: α-amylase (Sus scrofa)
Assay: Fluorescence quenching, binding and thermodynamics with α-amylase
Settings: T 304 K
Measure name: n (number of binding sites)

1) O=C(O)c1ccc(-c2c3nc(c(-c4ccc(C(=O)O)cc4)c4ccc([nH]4)c(-c4ccc(C(=O)O)cc4)c4nc(c(-c5ccc(C(=O)O)cc5)c5ccc2[nH]5)C=C4)C=C3)cc1.[Cu+2] [Cu–TCPP]; 0.84
2) O=C(O)c1ccc(-c2c3nc(c(-c4ccc(C(=O)O)cc4)c4ccc([nH]4)c(-c4ccc(C(=O)O)cc4)c4nc(c(-c5ccc(C(=O)O)cc5)c5ccc2[nH]5)C=C4)C=C3)cc1.[Ni+2] [Ni–TCPP]; 1.19
3) Oc1ccc(-c2c3nc(c(-c4ccc(O)cc4)c4ccc([nH]4)c(-c4ccc(O)cc4)c4nc(c(-c5ccc(O)cc5)c5ccc2[nH]5)C=C4)C=C3)cc1 [THPP]; 1.16
4) O=C(O)c1ccc(-c2c3nc(c(-c4ccc(C(=O)O)cc4)c4ccc([nH]4)c(-c4ccc(C(=O)O)cc4)c4nc(c(-c5ccc(C(=O)O)cc5)c5ccc2[nH]5)C=C4)C=C3)cc1 [TCPP]; 1.28
5) Nc1ccc(-c2c3nc(c(-c4ccc(N)cc4)c4ccc([nH]4)c(-c4ccc(N)cc4)c4nc(c(-c5ccc(N)cc5)c5ccc2[nH]5)C=C4)C=C3)cc1 [TAPP]; 1.40

###

Target: α-glucosidase (Saccharomyces cerevisiae, UniProt P53341)
Sequence (P53341 whole entry): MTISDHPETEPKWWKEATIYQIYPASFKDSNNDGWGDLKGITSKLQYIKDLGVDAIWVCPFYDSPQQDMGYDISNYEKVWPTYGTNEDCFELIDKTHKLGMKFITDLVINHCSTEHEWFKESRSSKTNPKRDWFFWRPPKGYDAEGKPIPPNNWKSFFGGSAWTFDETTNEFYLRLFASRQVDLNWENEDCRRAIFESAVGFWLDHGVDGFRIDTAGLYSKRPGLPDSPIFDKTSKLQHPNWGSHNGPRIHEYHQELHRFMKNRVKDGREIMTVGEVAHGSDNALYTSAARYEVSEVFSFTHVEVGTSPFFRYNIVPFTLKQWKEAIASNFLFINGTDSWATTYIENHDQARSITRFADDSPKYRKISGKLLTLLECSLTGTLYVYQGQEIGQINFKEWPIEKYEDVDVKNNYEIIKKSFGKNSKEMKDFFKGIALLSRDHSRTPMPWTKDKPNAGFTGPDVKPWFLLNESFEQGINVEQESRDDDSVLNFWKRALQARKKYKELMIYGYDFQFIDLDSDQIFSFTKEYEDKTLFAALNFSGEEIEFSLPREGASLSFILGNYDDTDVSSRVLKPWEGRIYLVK
Assay: Fluorescence quenching, binding and thermodynamics with α-glucosidase
Conditions: Van’t Hoff, 298–310 K
Measure name: ΔS^0

1) O=C(O)c1ccc(-c2c3nc(c(-c4ccc(C(=O)O)cc4)c4ccc([nH]4)c(-c4ccc(C(=O)O)cc4)c4nc(c(-c5ccc(C(=O)O)cc5)c5ccc2[nH]5)C=C4)C=C3)cc1.[Cu+2]; −812.45 ± 0.17 J/mol/k
2) O=C(O)c1ccc(-c2c3nc(c(-c4ccc(C(=O)O)cc4)c4ccc([nH]4)c(-c4ccc(C(=O)O)cc4)c4nc(c(-c5ccc(C(=O)O)cc5)c5ccc2[nH]5)C=C4)C=C3)cc1.[Ni+2]; 49.67 ± 0.08 J/mol/k
3) Oc1ccc(-c2c3nc(c(-c4ccc(O)cc4)c4ccc([nH]4)c(-c4ccc(O)cc4)c4nc(c(-c5ccc(O)cc5)c5ccc2[nH]5)C=C4)C=C3)cc1; −207.25 ± 0.13 J/mol/k
4) Nc1ccc(-c2c3nc(c(-c4ccc(N)cc4)c4ccc([nH]4)c(-c4ccc(N)cc4)c4nc(c(-c5ccc(N)cc5)c5ccc2[nH]5)C=C4)C=C3)cc1; −207.76 ± 0.14 J/mol/k
5) O=C(O)c1ccc(-c2c3nc(c(-c4ccc(C(=O)O)cc4)c4ccc([nH]4)c(-c4ccc(C(=O)O)cc4)c4nc(c(-c5ccc(C(=O)O)cc5)c5ccc2[nH]5)C=C4)C=C3)cc1; −451.52 ± 0.12 J/mol/k

###

Target: α-amylase (Sus scrofa, UniProt P00690)
Assay: FTIR secondary structure analysis of α-AMY complexes
Settings: enzyme–porphyrin molar ratio 1:2, amide I band
Measure name: β-Antiparallel (%)

1. Oc1ccc(-c2c3nc(c(-c4ccc(O)cc4)c4ccc([nH]4)c(-c4ccc(O)cc4)c4nc(c(-c5ccc(O)cc5)c5ccc2[nH]5)C=C4)C=C3)cc1; 13.37
2. O=C(O)c1ccc(-c2c3nc(c(-c4ccc(C(=O)O)cc4)c4ccc([nH]4)c(-c4ccc(C(=O)O)cc4)c4nc(c(-c5ccc(C(=O)O)cc5)c5ccc2[nH]5)C=C4)C=C3)cc1.[Ni+2]; 10.30
3. O=C(O)c1ccc(-c2c3nc(c(-c4ccc(C(=O)O)cc4)c4ccc([nH]4)c(-c4ccc(C(=O)O)cc4)c4nc(c(-c5ccc(C(=O)O)cc5)c5ccc2[nH]5)C=C4)C=C3)cc1; 11.75
4. O=C(O)c1ccc(-c2c3nc(c(-c4ccc(C(=O)O)cc4)c4ccc([nH]4)c(-c4ccc(C(=O)O)cc4)c4nc(c(-c5ccc(C(=O)O)cc5)c5ccc2[nH]5)C=C4)C=C3)cc1.[Cu+2]; 12.17

###

Molecular target: α-glucosidase (Saccharomyces cerevisiae, UniProt P53341)
Assay: FTIR secondary structure analysis of α-GLU complexes
Conditions: enzyme–porphyrin molar ratio 1:2, amide I band
Measure name: β-Sheet (%)

1. O=C(O)c1ccc(-c2c3nc(c(-c4ccc(C(=O)O)cc4)c4ccc([nH]4)c(-c4ccc(C(=O)O)cc4)c4nc(c(-c5ccc(C(=O)O)cc5)c5ccc2[nH]5)C=C4)C=C3)cc1.[Cu+2] [Cu–TCPP]; 10.93
2. Oc1ccc(-c2c3nc(c(-c4ccc(O)cc4)c4ccc([nH]4)c(-c4ccc(O)cc4)c4nc(c(-c5ccc(O)cc5)c5ccc2[nH]5)C=C4)C=C3)cc1 [THPP]; 12.79
3. Nc1ccc(-c2c3nc(c(-c4ccc(N)cc4)c4ccc([nH]4)c(-c4ccc(N)cc4)c4nc(c(-c5ccc(N)cc5)c5ccc2[nH]5)C=C4)C=C3)cc1 [TAPP]; 12.99
4. O=C(O)c1ccc(-c2c3nc(c(-c4ccc(C(=O)O)cc4)c4ccc([nH]4)c(-c4ccc(C(=O)O)cc4)c4nc(c(-c5ccc(C(=O)O)cc5)c5ccc2[nH]5)C=C4)C=C3)cc1.[Ni+2] [Ni–TCPP]; 13.68
5. O=C(O)c1ccc(-c2c3nc(c(-c4ccc(C(=O)O)cc4)c4ccc([nH]4)c(-c4ccc(C(=O)O)cc4)c4nc(c(-c5ccc(C(=O)O)cc5)c5ccc2[nH]5)C=C4)C=C3)cc1 [TCPP]; 12.03
